# Test system: Cricetinae gen. sp.
# TEST METHOD NOTES: In vivo for cholesterol absorption inhibitory activity using 7-day cholesterol-fed hamster model (expressed as percent change in cholesteryl esters at 50 mg/kg/day)
# Assay type: functional, Cricetulus griseus
MEASURED ATTRIBUTE: Change (%)
Report the value in % with no unit label.

Take a look at these entries with their results.
INSERT INTO assay_data (smiles_string, measured_value) VALUES
  ('COc1ccc([C@@H]2[C@@H](CCCc3ccccc3)C(=O)N2c2cccc(N)c2)cc1', -54),
  ('COc1ccc(N2C(=O)[C@H](CCCc3ccccc3)[C@H]2c2ccc(O)cc2)cc1', -48),
  ('COc1ccc([C@@H]2[C@@H](CCCc3ccccc3)C(=O)N2c2ccc(F)cc2)cc1', -95),
  ('COc1ccc([C@H]2N(c3ccccc3)C(=O)[C@]2(F)CCCc2ccccc2)cc1', -17);

Inquiry: Fill in the recorded Change for this compound, with Cricetinae gen. sp. as test system: COc1ccc([C@H]2NC(=O)[C@@H]2CCCc2ccccc2)cc1
Reply text: 0

====

# Test system: Cricetinae gen. sp.
# TEST METHOD NOTES: In vivo cholesterol absorption inhibitory activity using 7-day cholesterol-fed hamster model (expressed as percent change in serum cholesterol at 50 mg/kg/day)
# Assay type: functional, Cricetulus griseus
Quick rule for you: Change at -20% or higher means Met, lower means Not met.

INSERT INTO results (smiles_string, group_label) VALUES
  ('CCCOc1ccc([C@@H]2[C@@H](CCCc3ccccc3)C(=O)N2c2ccc(OC)cc2)cc1', 'Not met');

Now take the following compound into account.
Inquiry: Please check the record COc1ccc([C@@H]2[C@@H](CCCc3ccccc3)C(=O)N2c2ccc(C#N)cc2)cc1 and state if its Change is at or above -20%.
Reply text: Not met

====

// reported Change per item
# Tested on: Cricetinae gen. sp.
# TEST METHOD NOTES: In vivo cholesterol absorption inhibitory activity using 7-day cholesterol-fed hamster model (expressed as percent change in serum cholesterol at 50 mg/kg/day)
# Assay type: functional, Cricetulus griseus
// note: answer is a bare numeric in %

Inquiry: Cricetinae gen. sp. / Change / COc1ccc([C@@H]2[C@@H](CCCc3ccccc3)C(=O)N2C)cc1 : value?
Reply text: 0

Inquiry: Test system Cricetinae gen. sp.; read-out Change; what value for COc1ccc(N2C(=O)[C@H](CCCc3ccccc3)[C@H]2c2ccc(Oc3ccccc3)cc2)cc1 ?
Reply text: -37

Inquiry: # returns recorded Change (system: Cricetinae gen. sp.) for COc1ccc([C@H]2N(c3ccc(OC)cc3)C(=O)C2(c2ccccc2)c2ccccc2)cc1
Reply text: 0

Inquiry: // fetch Cricetinae gen. sp. Change for COc1ccc(N2C(=O)[C@@H](CCCc3ccccc3)[C@H]2c2ccc(OC(C)C)cc2)cc1
Reply text: -28

Inquiry: Lab request: please report Change under test system Cricetinae gen. sp. for COc1ccc([C@@H]2[C@@H](CCCc3ccccc3)C(=O)N2c2cccc(N)c2)cc1
Reply text: -25

====

# System: Cricetinae gen. sp.
# TEST METHOD NOTES: In vivo for cholesterol absorption inhibitory activity using 7-day cholesterol-fed hamster model (expressed as percent change in cholesteryl esters at 50 mg/kg/day)
# Type: functional, Cricetulus griseus
Response field label: string, one of TRUE (Change strictly below -20%) or FALSE.

Worked examples, 5 compounds total:
INSERT INTO assay_data (compound, group_label) VALUES
  ('COc1ccc(N2C(=O)[C@@H](CCCc3ccccc3)[C@H]2c2ccccc2)cc1', 'FALSE'),
  ('CCCOc1ccc([C@@H]2[C@@H](CCCc3ccccc3)C(=O)N2c2ccc(OC)cc2)cc1', 'TRUE'),
  ('COc1ccc(N2C(=O)[C@H](CCCc3ccccc3)[C@H]2c2ccc([N+](=O)[O-])cc2)cc1', 'FALSE'),
  ('COc1ccc(N2C(=O)[C@H](CCCc3ccccc3)[C@H]2c2ccc(S(C)(=O)=O)cc2)cc1', 'TRUE'),
  ('COc1ccc([C@@H]2[C@@H](CCCc3ccccc3)C(=O)N2c2cc(F)cc(F)c2)cc1', 'TRUE');

Inquiry: Hello, is Change of the following compound strictly smaller than -20%? COc1ccc(N2C(=O)[C@H](CCCc3ccccc3)[C@H]2c2ccc(SC)cc2)cc1
Reply text: FALSE

Inquiry: Threshold test, Change < -20%: COc1ccc([C@@H]2[C@@H](CCCCCCc3ccccc3)C(=O)N2c2ccc(OC)cc2)cc1
Reply text: FALSE

Inquiry: Here's an entry: COc1ccc([C@@H]2[C@@H](CCCc3ccccc3)C(=O)N2c2cccc(OC)c2)cc1 . Is its Change below -20%?
Reply text: TRUE

Inquiry: Problem: For the compound COc1ccc(N2C(=O)[C@H](CCCc3ccccc3)[C@H]2c2cccc(OC)c2)cc1 , is Change under -20%?
Reply text: TRUE

Inquiry: Quick check: Change of COc1ccc(N2C(=O)[C@H](CCCc3ccccc3)[C@H]2c2ccc(OC)c(OC)c2)cc1 under -20%?
Reply text: TRUE

Inquiry: I wonder whether COc1ccc([C@@H]2[C@@H](CCCc3ccccc3)C(=O)N2c2ccc(C)cc2)cc1 has Change below -20%. Can you tell?
Reply text: TRUE

Inquiry: Take the compound COc1ccc([C@@H]2[C@H](CCCCCc3ccccc3)C(=O)N2c2ccc(OC)cc2)cc1 and say whether its Change is less than -20%.
Reply text: TRUE

Inquiry: Say whether its Change is strictly beneath -20%. Entry: COc1ccc([C@@H]2[C@@H](CCCc3ccccc3)C(=O)N2C)cc1
Reply text: FALSE

Inquiry: Is -20% strictly greater than the compound's reported Change? compound: CC[C@]1(CCCc2ccccc2)C(=O)N(c2ccc(OC)cc2)[C@@H]1c1ccccc1
Reply text: TRUE

Inquiry: Is -20% strictly greater than the compound's reported Change? compound: COc1ccc([C@@H]2[C@H](CCCc3ccccc3)C(=O)N2c2ccc(OC)cc2)cc1
Reply text: TRUE

Inquiry: Would you kindly verify if Change of COc1ccc(N2C(=O)C(CCCc3ccccc3)C23c2ccc(OC)cc2-c2cc(OC)ccc23)cc1 (stereo unspecified) is strictly less than -20%?
Reply text: TRUE

====

# System: Cricetinae gen. sp.
# TEST METHOD NOTES: In vivo for cholesterol absorption inhibitory activity using 7-day cholesterol-fed hamster model (expressed as percent change in cholesteryl esters at 50 mg/kg/day)
# Format: functional, Cricetulus griseus
Catalogue of molecules with associated Change
Supply the numeric figure in %, leaving out any unit text.

INSERT INTO measurements (molecule, assay_system, measured_attribute, measured_value) VALUES
  ('COCc1ccc([C@@H]2[C@@H](CCCc3ccccc3)C(=O)N2c2ccc(OC)cc2)cc1', 'Cricetinae gen. sp.', 'Change', -56),
  ('COc1ccc(N2C(=O)[C@@H](CCCc3ccccc3)[C@H]2c2cccc(OC)c2)cc1', 'Cricetinae gen. sp.', 'Change', -54),
  ('COc1ccc(N2C(=O)[C@@H](CCCc3ccccc3)[C@H]2c2ccc3c(c2)OCO3)cc1', 'Cricetinae gen. sp.', 'Change', 0),
  ('COc1ccc(N2C(=O)[C@H](CCCc3ccccc3)[C@H]2c2ccccc2OC)cc1', 'Cricetinae gen. sp.', 'Change', 0),
  ('COc1ccc([C@@H]2[C@@H](CCCc3ccccc3)C(=O)N2C23C[C@H]4C[C@@H](C2)C[C@@H](C3)C4)cc1', 'Cricetinae gen. sp.', 'Change', 0);

Inquiry: # returns recorded Change (system: Cricetinae gen. sp.) for COc1ccc(N2C(=O)[C@@H](CCCc3ccccc3)[C@H]2c2ccc(S)cc2)cc1
Reply text: 0

Inquiry: Fill in the recorded Change for this molecule, with Cricetinae gen. sp. as test system: COc1ccc([C@@H]2[C@@H](CCCc3ccccc3)C(=O)N2c2ccc3c(c2)OCO3)cc1
Reply text: -52

Inquiry: Form: Entry = COc1ccc([C@@H]2[C@@H](CCCc3ccccc3)C(=S)N2c2ccc(OC)cc2)cc1 | System = Cricetinae gen. sp. | Change = ____
Reply text: -23

Inquiry: Test system Cricetinae gen. sp.; read-out Change; what value for COc1ccc([C@@H]2[C@H](CCCC3CCCCC3)C(=O)N2c2ccc(OC)cc2)cc1 ?
Reply text: -28

Inquiry: # value lookup — system Cricetinae gen. sp., readout Change, item COc1ccc([C@@H]2[C@@H](CCCc3ccccc3)C(=O)N2C2CC2)cc1
Reply text: -61

====

# ASSAY SYSTEM: Sterol O-acyltransferase 1 (Rattus norvegicus) (UniProt O70536)
# Sequence (whole entry): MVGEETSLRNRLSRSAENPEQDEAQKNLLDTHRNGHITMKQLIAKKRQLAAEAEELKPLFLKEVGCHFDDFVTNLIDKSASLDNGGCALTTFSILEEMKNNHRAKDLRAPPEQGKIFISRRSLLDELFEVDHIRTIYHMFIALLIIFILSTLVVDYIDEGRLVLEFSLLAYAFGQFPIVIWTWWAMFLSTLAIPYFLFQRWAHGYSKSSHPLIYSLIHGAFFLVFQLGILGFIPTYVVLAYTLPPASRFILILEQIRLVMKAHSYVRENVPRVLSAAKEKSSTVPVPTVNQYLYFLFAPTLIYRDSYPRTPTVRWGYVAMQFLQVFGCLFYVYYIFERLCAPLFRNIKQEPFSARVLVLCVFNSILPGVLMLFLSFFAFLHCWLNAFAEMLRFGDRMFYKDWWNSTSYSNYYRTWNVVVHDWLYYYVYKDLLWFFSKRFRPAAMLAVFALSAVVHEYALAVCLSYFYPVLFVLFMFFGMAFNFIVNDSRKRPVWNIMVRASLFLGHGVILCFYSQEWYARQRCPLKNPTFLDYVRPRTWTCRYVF
# TEST METHOD NOTES: In vitro for inhibitory activity against Acyl coenzyme A:cholesterol acyltransferase 1 from rat liver microsomes at 50 uM
Think of 20% as a floor: if inhibition stands on it or above, it is 1.0; beneath it, 0.0.

Here's what some known entries look like.
INSERT INTO assay_data (smiles_string, group_label) VALUES
  ('COc1ccc(N2C(=O)[C@H](CCCc3ccccc3)[C@H]2c2ccc([N+](=O)[O-])cc2)cc1', 1.0),
  ('COc1ccc(N2C(=O)[C@H](CCCc3ccccc3)[C@H]2c2ccc(CO)cc2)cc1', 0.0);

Inquiry: Please indicate if the recorded inhibition for COc1ccc(N2C(=O)[C@H](CCCc3ccccc3)[C@H]2c2ccc(C)cc2)cc1 meets or exceeds 20%.
Reply text: 0.0

Inquiry: Please check the record COc1ccc(N2C(=O)[C@@H](CCCc3ccccc3)[C@H]2c2cccc(OC)c2)cc1 and state if its inhibition is at or above 20%.
Reply text: 1.0

# credit: ChEMBL document CHEMBL1129795
